Reference for the values: the supplement of paper PMC10567573

Please respond with reported protein stability index for every item in the list.
B1: CD207 (parent)
chain: MTVEKEAPDAHFTVDKQNISLWPR

# Variants of: B1
# test: protein stability index of a GFP-peptide fusion (GPS, HEK-293T) (PSI 1-6); higher = more stable;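 also: lentivirally expressed fusions sorted by FACS into six bins by GFP to DsRed ratio, PSI derived from sequencing read proportions per bin multiplied by bin number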
# details: c terminus: a fixed tail appended
Answer as a number with no unit attached.

Lookup result for "V14R" ; measured protein stability index: 3.05

Lookup result for "L21F" ; measured protein stability index: 3.25

Lookup result for "N18Q" ; measured protein stability index: 2.86

Lookup result for "P8C" ; measured protein stability index: 2.96

Lookup result for "V3K" ; measured protein stability index: 3.79

Lookup result for "K5M" ; measured protein stability index: 2.04

Lookup result for "P8F" ; measured protein stability index: 1.98

Lookup result for "P8Q" ; measured protein stability index: 3.24

Lookup result for "S20V" ; measured protein stability index: 2.71

Lookup result for "W22H" ; measured protein stability index: 4.21

Lookup result for "Q17P" ; measured protein stability index: 3.21

Lookup result for "F12N" ; measured protein stability index: 3.13

Lookup result for "E6Y" ; measured protein stability index: 2.38

Lookup result for "H11A" ; measured protein stability index: 3.38

Lookup result for "E6K" ; measured protein stability index: 3.47

Lookup result for "K16H" ; measured protein stability index: 3.53

Lookup result for "K5A" ; measured protein stability index: 2.96

Lookup result for "P23R" ; measured protein stability index: 3.43

Lookup result for "E6H" ; measured protein stability index: 2.83

Lookup result for "I19D" ; measured protein stability index: 4.22

Lookup result for "E4P" ; measured protein stability index: 3.18

Lookup result for "Q17A" ; measured protein stability index: 3.66
